// provenance: ChEMBL document CHEMBL3616462

# experimentSummary: Cytotoxicity against Influenza A virus (A/California/07/2009(H1N1)) infected MDCK cells
# Assay type: cell-based, Canis lupus familiaris
# experimentalSetup: dog
propertyName: CC50

recordSmiles: COC(=O)[C@]1(C)CCC[C@]2(C)[C@H]3C[C@H]4C(C(C)C)=C[C@]3(CC[C@H]21)[C@@H]1C(=O)CC[C@H](OC(=O)/C=C/c2ccccc2)[C@@H]14
reported: 35 µM
//
recordSmiles: COC(=O)[C@H]1[C@@H](C(=O)OC)[C@@]23C=C(C(C)C)[C@@H]1C[C@@H]2[C@@]1(C)CCC[C@@](C)(C(=O)OC)[C@@H]1CC3
reported: 9.4 µM
//
recordSmiles: COC(=O)[C@]1(C)CCC[C@]2(C)[C@H]3C[C@H]4C(C(C)C)=C[C@]3(CC[C@H]21)[C@H]1[C@@H]4[C@@H](O)CC[C@@H]1O
reported: 93 µM
//
recordSmiles: COC(=O)[C@]1(C)CCC[C@]2(C)[C@H]3C[C@H]4C(C(C)C)=C[C@]3(CC[C@H]21)[C@@H]1C(=O)OC(=O)[C@@H]14
reported: 35 µM
//
recordSmiles: COC(=O)[C@]1(C)CCC[C@]2(C)[C@H]3C[C@H]4C(C(C)C)=C[C@]3(CC[C@H]21)[C@@H]1C(=O)CC[C@H](OC(=O)c2cccnc2)[C@@H]14
reported: 35 µM

====

The following molecules are shown together with reported EC50 values.
# experimentSummary: Antiviral activity against Influenza A virus (A/Viet Nam/1203/2004(H5N1)) infected in MDCK cells
# Format: functional, cell-based
propertyName: EC50 (µM)

recordSmiles: COC(=O)[C@]1(C)CCC[C@]2(C)[C@H]3C[C@H]4C(C(C)C)=C[C@]3(CC[C@H]21)[C@@H]1C(=O)CC[C@H](OC(C)=O)[C@@H]14
uom: µM
operatorSymbol: >
reported: 100
//
recordSmiles: COC(=O)[C@]1(C)CCC[C@]2(C)[C@H]3C[C@H]4C(C(C)C)=C[C@]3(CC[C@H]21)[C@@H]1C(=O)CC[C@H](OC(=O)/C=C/c2ccccc2)[C@@H]14
uom: µM
operatorSymbol: >
reported: 9
//
recordSmiles: COC(=O)[C@H](C)NC(=O)[C@]1(C)CCC[C@]2(C)[C@H]3C[C@H]4C(C(C)C)=C[C@]3(CC[C@H]21)[C@@H]1C(=O)OC(=O)[C@@H]14
uom: µM
operatorSymbol: =
reported: 32
//
recordSmiles: COC(=O)[C@]1(C)CCC[C@]2(C)[C@H]3C[C@H]4C(C(C)C)=C[C@]3(CC[C@H]21)[C@@H]1/C(=N/O)CCC2(OCCO2)[C@@H]14
uom: µM
operatorSymbol: =
reported: 3.2
//
recordSmiles: COC(=O)[C@]1(C)CCC[C@]2(C)[C@H]3C[C@H]4C(C(C)C)=C[C@]3(CC[C@H]21)[C@@H]1C(=O)OC(=O)[C@@H]14
uom: µM
operatorSymbol: =
reported: 21

====

# experimentSummary: Cytotoxicity against Influenza A virus (A/Viet Nam/1203/2004(H5N1)) infected MDCK cells
# Format: cell-based, Canis lupus familiaris
# experimentalSetup: dog
The following compounds are shown together with reported CC50 values.
propertyName: CC50 (µM)

recordSmiles: COC(=O)[C@]1(C)CCC[C@]2(C)[C@H]3C[C@@H]4[C@H]5[C@@H]6CCC(=O)[C@H]5[C@@]3(CC[C@H]21)CC4(C(C)C)O6
operatorSymbol: >
reported: 100
//
recordSmiles: COC(=O)[C@]1(C)CCC[C@]2(C)[C@H]3C[C@@H]4[C@@H]5[C@H]6[C@H](OC(C)=O)CC[C@@H]5OC4(C(C)C)C[C@]63CC[C@H]21
operatorSymbol: =
reported: 12
//
recordSmiles: COC(=O)[C@]1(C)CCC[C@]2(C)[C@H]3C[C@H]4C(C(C)C)=C[C@]3(CC[C@H]21)[C@H]1[C@@H]4[C@@H](O)CC[C@@H]1O
operatorSymbol: >
reported: 100
//
recordSmiles: COC(=O)[C@]1(C)CCC[C@]2(C)[C@H]3C[C@H]4C(C(C)C)=C[C@]3(CC[C@H]21)[C@@H]1C(=O)CC[C@H](OC(C)=O)[C@@H]14
operatorSymbol: >
reported: 100
//
recordSmiles: CC(C)C1=C[C@@]23CC[C@@H]4[C@](C)(CCC[C@@]4(C)C(=O)O)[C@H]2C[C@@H]1[C@H]1C(=O)C=CC(=O)[C@H]13
operatorSymbol: =
reported: 30
